// provenance: paper PMC9606946

biological target: T1, alpha-conotoxin MI (CTX-MI) (Conus magus, UniProt P01521 1-14, disulfide (positions not given here); not fully specified; also: two disulfides as in P01521); test: BLI; details: protein: commercial; tags: none; label: biotin
T1 chain: GRCCHPACGKNYSC-NH2
Where no end group is shown, it is not given here.
Catalogue of Kd readings, one per entry.

{"Binder": "MBMI-08 (ssDNA) DNA: ATTGGCACTCCACGCATAGGCAACGGGGGGGTGGGGAGAGAAGGGTTGAGTGACAATTTGCCTATGCGTGCTACCGTGAA", "Measurement unit": "µM", "Kd": 12}
{"Binder": "MBMI-03 (ssDNA) DNA: ATTGGCACTCCACGCATAGGGGCGCTTGTGGTGTAAGGGTTGGGTATATGTCGTAATAGGCCTATGCGTGCTACCGTGAA", "Measurement unit": "µM", "Kd": 3.49}
{"Binder": "MBMI-92 (ssDNA) DNA: ATTGGCACTCCACGCATAGGCTCGCGGAGGGAGGGGTTTTGGGGGGCGGGATGGTATTGGCCTATGCGTGCTACCGTGAA", "Measurement unit": "µM", "Kd": 0.26}
{"Binder": "MBMI-51 (ssDNA) DNA: ATTGGCACTCCACGCATAGGAAGGTGGAATCGGAGGGGGTGCTTGGGTGGGGGTGGGATTCCTATGCGTGCTACCGTGAA", "Measurement unit": "µM", "Kd": 14}
{"Binder": "CTCGCGGAGGGAGGGGTTTTGGGGGGCGGGATGGTATTGG (ssDNA) [MBMI-92c]", "Measurement unit": "µM", "Kd": 1.32}
{"Binder": "MBMI-94 (ssDNA) DNA: ATTGGCACTCCACGCATAGGAGCGGGGTTGGTTTGCGGGAGGGGGGGTGGAGGTAAGCTCCCTATGCGTGCTACCGTGAA", "Measurement unit": "µM", "Kd": 2.33}
